EXPERIMENTAL TARGET: NET (norepinephrine transporter) (Rattus norvegicus)
Construct: Cortex from rat brain was collected and homogenised; from tissue; host or cells: rat brain cortex
Sequence (Q63380 1-617): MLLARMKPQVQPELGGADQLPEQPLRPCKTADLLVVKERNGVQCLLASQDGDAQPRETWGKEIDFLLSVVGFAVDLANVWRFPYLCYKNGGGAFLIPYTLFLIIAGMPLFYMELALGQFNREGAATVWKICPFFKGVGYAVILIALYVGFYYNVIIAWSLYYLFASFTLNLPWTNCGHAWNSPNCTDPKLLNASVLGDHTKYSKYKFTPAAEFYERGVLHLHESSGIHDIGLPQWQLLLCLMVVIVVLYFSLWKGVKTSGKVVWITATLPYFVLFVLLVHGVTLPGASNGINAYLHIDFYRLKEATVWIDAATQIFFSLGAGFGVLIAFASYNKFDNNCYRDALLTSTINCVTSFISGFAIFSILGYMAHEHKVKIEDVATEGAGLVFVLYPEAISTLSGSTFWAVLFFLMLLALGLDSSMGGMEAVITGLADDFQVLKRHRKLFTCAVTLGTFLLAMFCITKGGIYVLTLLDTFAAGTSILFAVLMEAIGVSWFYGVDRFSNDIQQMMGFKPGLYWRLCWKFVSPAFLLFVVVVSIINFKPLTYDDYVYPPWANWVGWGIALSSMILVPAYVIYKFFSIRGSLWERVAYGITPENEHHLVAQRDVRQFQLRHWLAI
ASSAY: In vitro determination of NET reuptake inhibition ([3H]Nixosetine binding, rat brain cortex)
MEASUREMENT SETUP: rat brain cortex, read-out: NET pIC50 (converted)
Each record here notes measured IC50.

| COMPOUND | EXPERIMENTAL TARGET | IC50 |
| --- | --- | --- |
| CCCNC(=O)NC1CCN(C[C@H]2C[C@@H]3c4ccccc4Cc4ccc(F)cc4[C@@H]3O2)CC1 | NET (norepinephrine transporter) (Rattus norvegicus) | 8.91 µM |
| O=C(c1ccccc1)N1CCN(CC2CC3c4ccccc4Cc4ccc(F)cc4C3O2)CC1 (stereo not shown) | NET (norepinephrine transporter) (Rattus norvegicus) | > 10 µM |
| CSCCNC(=O)N1CCN(CC2CC3c4ccccc4Cc4ccc(F)cc4C3O2)CC1 (stereo not shown) | NET (norepinephrine transporter) (Rattus norvegicus) | 5.89 µM |
| Fc1ccc2c(c1)C1OC(CN3CCOC(CCOc4ccccc4)C3)CC1c1ccccc1C2 (mixture of isomers) | NET (norepinephrine transporter) (Rattus norvegicus) | 2.4 µM |
| O=C(C1CC1)N1CCN(C[C@H]2C[C@@H]3c4ccccc4Cc4ccc(F)cc4[C@@H]3O2)CC1 | NET (norepinephrine transporter) (Rattus norvegicus) | > 10 µM |
| OCCC1CCN(CC2CC3c4ccccc4Cc4ccc(F)cc4C3O2)C1 (mixture of isomers) | NET (norepinephrine transporter) (Rattus norvegicus) | 0.501 µM |
| CN(C)CCC1CN(C[C@H]2C[C@@H]3c4ccccc4Cc4ccc(F)cc4[C@@H]3O2)CCO1 (stereo partly shown) | NET (norepinephrine transporter) (Rattus norvegicus) | 5.75 µM |
| COc1ccc(N2CCN(CC3CC4c5ccccc5Cc5ccc(F)cc5C4O3)CC2)cc1 (stereo not shown) | NET (norepinephrine transporter) (Rattus norvegicus) | 7.24 µM |
| OC1(c2ccc(F)cc2)CCN(CC2CC3c4ccccc4Cc4ccc(F)cc4C3O2)C1 (mixture of isomers) | NET (norepinephrine transporter) (Rattus norvegicus) | 7.08 µM |
| O=C(Nc1ccc(F)cc1)OCC1CCN(CC2CC3c4ccccc4Cc4ccc(F)cc4C3O2)C1 (stereo not shown) | NET (norepinephrine transporter) (Rattus norvegicus) | 3.8 µM |
| Cc1ccc(OC2CCN(CC3CC4c5ccccc5Cc5ccc(F)cc5C4O3)C2)cc1 (stereo not shown) | NET (norepinephrine transporter) (Rattus norvegicus) | > 10 µM |
| CC(C)(C)CC(C)(C)NC(=O)NC1CCN(CC2CC3c4ccccc4Cc4ccc(F)cc4C3O2)CC1 (stereo not shown) | NET (norepinephrine transporter) (Rattus norvegicus) | 3.98 µM |
| Cn1cccc1C(=O)NC1CCN(CC2CC3c4ccccc4Cc4ccc(F)cc4C3O2)CC1 (stereo not shown) | NET (norepinephrine transporter) (Rattus norvegicus) | 7.24 µM |
| O=C(C1CCN(CC2CC3c4ccccc4Cc4ccc(F)cc4C3O2)CC1)N1CC=C(c2ccccc2)CC1 (stereo not shown) | NET (norepinephrine transporter) (Rattus norvegicus) | 6.17 µM |
| CC(C)c1ccccc1NC(=O)C1CCN(CC2CC3c4ccccc4Cc4ccc(F)cc4C3O2)CC1 (stereo not shown) | NET (norepinephrine transporter) (Rattus norvegicus) | > 10 µM |
| O=C(NCC(O)CO)C1CCN(CC2CC3c4ccccc4Cc4ccc(F)cc4C3O2)CC1 (stereo not shown) | NET (norepinephrine transporter) (Rattus norvegicus) | > 10 µM |
